System: U2OS
PROTOCOL TEXT: Multiplex assay against U2OS
Type: toxicity, cell-based
ASSAY SETUP: human, 12 h, 1 µM, compound concentration 1 uM, replicate 1
Listed molecules paired with reported Population Normal (%)
Your answer is read as %, so omit the unit and give the number.

Solved cases below.
Enquiry: Report Population Normal (%) for Nc1ccc(C(=O)Nc2cccc(-c3nc(N4CCOCC4)c4oc5ncccc5c4n3)c2)cn1 please.
Return: 89

Enquiry: How about this molecule: CN(C)C/C=C/C(=O)Nc1cc2c(Nc3ccc(F)c(Cl)c3)ncnc2cc1O[C@H]1CCOC1.O=C(O)/C=C\C(=O)O.O=C(O)/C=C\C(=O)O [AFATINIB DIMALEATE]
Return: 96

Enquiry: How about this molecule: Cc1nc(Cc2cccc(C(F)(F)F)c2)sc1-c1ccc(C(N)=O)nc1 [TP-024n]
Return: 94

Enquiry: How about this molecule: Cl.Cl.Nc1ncnc2c1c(-c1cccc(OCc3ccccc3)c1)cn2[C@H]1C[C@@H](CN2CCC2)C1
Return: 94

Enquiry: How about this molecule: Cl.Cl.NC1(c2ccc(-c3nc4ccn5c(=O)[nH]nc5c4cc3-c3ccccc3)cc2)CCC1
Return: 98

Enquiry: How about this molecule: Nc1nc2c(c(N3CCNCC3)n1)CCC1=C2[C@@H]2CCCC[C@@H]2O1
Return: 92

Others:
Enquiry: Report Population Normal (%) for CN(C)CCOc1ccc(-c2nc(-c3ccncc3)c(-c3ccc4c(c3)CC/C4=N\O)[nH]2)cc1 please.
Return: 90

Enquiry: How about this molecule: COc1cc2c(NC3CCN(C(C)C)CC3)nc(N3CCC(F)(F)CC3)nc2cc1OCCCN1CCCC1
Return: 86

Enquiry: How about this molecule: CCCn1c(=O)c2[nH]c(C34CC5CC(CC3C5)C4)nc2n(CCC)c1=O
Return: 92

Enquiry: How about this molecule: CNC(=O)c1cc(Oc2ccc(NC(=O)Nc3cc(C(C)(C)C)nn3-c3ccc4ncccc4c3)c(F)c2)ccn1
Return: 96

* * *

Tested on: U2OS
PROTOCOL TEXT: Incucyte cell viability with U2OS; note: filed as whole numbers so only -1 and 0 and 1 occur
Type: toxicity, cell-based
ASSAY SETUP: human, 12 h, 10 µM, compound concentration 10 uM, replicate number 1, timepoint 12 hours
PROPERTY NAME: Growth Rate
I only need the number, thanks.

Solved cases below.
Enquiry: Report Growth Rate for CS(=O)(=O)c1cc(C2(NC(=O)c3cncc4c3cnn4-c3ccc(F)cc3)CC2)ccn1 please.
Return: 1

Enquiry: How about this compound: CCC1(C2=NCCN2)Cc2ccccc2O1 (stereo not drawn)
Return: 0

Enquiry: How about this compound: O=C(O)c1ccc2c(c1)nc(Nc1cccc(Cl)c1)c1ccncc12
Return: 0

Enquiry: How about this compound: Cc1cc(C)cc(C(=O)N(C)[C@H](Cc2ccc(-c3ccccc3)cc2)C(=O)N[C@@H](Cc2c[nH]c3ccccc23)C(=O)O)c1
Return: 0

Enquiry: How about this compound: CC1=C(C#N)C(c2ccc3c(c2)c(NC(=O)c2ccccc2C)nn3C)C(C#N)=C(C)N1
Return: 1

Others:
Enquiry: Report Growth Rate for CC(C)Oc1ccc(-c2nn([C@@H](C)c3oc4ccc(F)cc4c(=O)c3-c3cccc(F)c3)c3ncnc(N)c23)cc1F please.
Return: 0

Enquiry: How about this compound: Cc1cc2c(cc1N1C(=O)c3cccc4c(CCCO)ccc(c34)C1=O)n(C)c(=O)n2C
Return: 0

Enquiry: How about this compound: C1=N/C2=N/c3ccc(OCCN4CCCC4)c(c3)COC/C=C\COCc3cccc(c3)C(=C1)N2
Return: 0
